- assay.target: Fuc(a1-2)Gal6S(b1-4)Glc
- test.summary: glycan array binding signal (z-score within array); higher = stronger binding
- run.parameters: glycan notation: IUPAC condensed, linker removed
The full list was thinned out, with the strongest signals kept by preference.
readout.type: glycan array binding signal (z-score)
No unit in the answer, please; the number alone is enough.

Example binders with recorded glycan array binding signal (z-score):
1. DBA (Dolichos biflorus) (protein) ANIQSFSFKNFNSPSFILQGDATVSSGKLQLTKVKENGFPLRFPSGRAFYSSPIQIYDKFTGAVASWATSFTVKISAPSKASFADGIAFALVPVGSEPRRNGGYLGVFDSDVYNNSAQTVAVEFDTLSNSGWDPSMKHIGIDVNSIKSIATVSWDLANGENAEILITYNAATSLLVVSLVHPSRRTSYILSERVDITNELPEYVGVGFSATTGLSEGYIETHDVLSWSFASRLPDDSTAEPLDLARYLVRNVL | 0.346
2. PpFlo3 (Pichia pastoris) (protein) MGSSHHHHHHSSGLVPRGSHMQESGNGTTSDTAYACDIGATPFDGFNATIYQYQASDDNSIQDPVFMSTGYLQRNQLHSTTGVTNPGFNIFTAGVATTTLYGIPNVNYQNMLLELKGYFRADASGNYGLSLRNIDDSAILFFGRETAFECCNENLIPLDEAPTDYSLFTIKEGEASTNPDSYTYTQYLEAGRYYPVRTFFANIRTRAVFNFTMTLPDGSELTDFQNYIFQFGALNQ | -0.279
3. SGC, Q9M345 (protein) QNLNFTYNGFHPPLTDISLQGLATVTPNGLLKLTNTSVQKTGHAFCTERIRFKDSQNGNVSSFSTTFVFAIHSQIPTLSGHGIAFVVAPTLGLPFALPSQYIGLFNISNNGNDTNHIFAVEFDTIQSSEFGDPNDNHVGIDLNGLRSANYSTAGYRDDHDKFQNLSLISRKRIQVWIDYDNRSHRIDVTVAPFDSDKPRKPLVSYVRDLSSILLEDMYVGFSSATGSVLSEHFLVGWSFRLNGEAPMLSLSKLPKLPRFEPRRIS | -0.377

Okay, next one:
Value of glycan array binding signal (z-score) reported for the binder BTL (Bryothamnion triquetrum) (protein) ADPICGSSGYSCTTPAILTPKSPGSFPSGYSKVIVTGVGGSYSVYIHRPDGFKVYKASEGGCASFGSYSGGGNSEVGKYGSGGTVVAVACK is -0.244
